Measured values drawn from patent US4192871A for this set.

# Assay info: pH of the salt solutions
# Type: physicochemical
# Measurement parameters: aqueous solution of the salt, Table 5
Parameter measured: pH
Answer with a bare number; do not write a unit.

# example entries with known answers
{"Molecule": "CCCN(CCC)CC(=O)O[C@H]1C[C@]2(C)[C@@H](C(C)=O)CC[C@H]2[C@@H]2CC[C@H]3C[C@H](O)CC[C@]3(C)[C@H]21 [Example 214]", "pH": 3.52}
{"Molecule": "CC(=O)[C@H]1CC[C@H]2[C@@H]3CC[C@H]4C[C@H](O)CC[C@]4(C)[C@H]3[C@@H](OC(=O)CN(C)C3CCCCC3)C[C@]12C", "pH": 3.62}

Attention now turns to another entry.
GET /values?readout=pH&item= CC(=O)[C@H]1CC[C@H]2[C@@H]3CC[C@H]4C[C@H](O)CC[C@]4(C)[C@H]3[C@@H](OC(=O)CNCC(C)(C)C)C[C@]12C
3.12

====

# Assay info: pH of the salt solutions
# Assay type: physicochemical
# Measurement parameters: aqueous solution of the citrate, filtered, 9.5-10 mg/ml
Structures can show the parent of a compound that is named as a salt.
Parameter measured: pH

# count of solved cases: 4
{"Compound": "CC(=O)[C@H]1CC[C@H]2[C@@H]3CC[C@H]4C[C@H](O)CC[C@@H]4[C@H]3[C@@H](OC(=O)CN3CCC(C)CC3)C[C@]12C [Example 229 citrate salt]", "pH": 3.73}
{"Compound": "CCO[C@H]1C[C@@]2(C)[C@@H](CC[C@@H]3[C@@H]2[C@@H](OC(=O)CN(CC)CC)C[C@]2(C)[C@@H](C(C)=O)CCC[C@@H]32)C[C@@H]1O [Example 225 citrate salt]", "pH": 3.66}
{"Compound": "CCCN(CCC)CC(=O)O[C@H]1C[C@]2(C)[C@@H](C(C)=O)CCC[C@H]2[C@@H]2CC[C@H]3C[C@H](O)[C@@H](OCC)C[C@]3(C)[C@H]21 [Example 226 citrate salt]", "pH": 2.85}
{"Compound": "CCCCN(C)CC(=O)O[C@H]1C[C@]2(C)[C@@H](C(C)=O)CC[C@H]2[C@@H]2CC[C@H]3C[C@H](O)CC[C@@H]3[C@H]21 [Example 228 citrate salt]", "pH": 3.77}

Attention now shifts to the item below.
# query: pH of entry CCCN(CCC)CC(=O)O[C@H]1C[C@]2(C)[C@@H](C(C)=O)CC[C@H]2[C@@H]2CC[C@H]3C[C@H](O)CC[C@@H]3[C@H]21 [Example 227 citrate salt]
3.0

====

# Assay info: dissolution of the 11β-aminoester salts in aqueous acid (Table 5 and Examples 101, 225-229)
# Type: physicochemical
# Measurement parameters: method E: as C with further acid; WT. of solution Ex. 160: 6.12; 161: 7.8; 203: 12.7; 212: 12.125; 220: 10 g
Below is a list of entries, each paired with its recorded Dissolved aminoester value.
Note to self: number, then unit, no commentary.

{"Chemical structure": "CCCN(CCC)CC(=O)O[C@H]1C[C@]2(C)[C@@H](C(C)=O)CC[C@H]2[C@@H]2CC[C@H]3C[C@H](O)[C@@H](C)C[C@]3(C)[C@H]21", "Measured value": "78 mg"}
{"Chemical structure": "CC(=O)[C@H]1CC[C@H]2[C@@H]3CC[C@H]4C[C@H](O)[C@@H](Cl)C[C@]4(C)[C@H]3[C@@H](OC(=O)CN3CCC(C)CC3)C[C@]12C", "Measured value": "127 mg"}
{"Chemical structure": "CCCN(CCC)CC(=O)O[C@H]1C[C@]2(C)[C@@H](C(C)=O)CC[C@H]2[C@@H]2CC[C@H]3C[C@H](O)CC[C@]3(C)[C@H]21", "Measured value": "73 mg"}

// returns reported Dissolved aminoester for input CC(=O)[C@H]1CC[C@H]2[C@@H]3CC[C@H]4C[C@H](O)CC[C@]4(C)[C@H]3[C@@H](OC(=O)CN3CC4CCC(CC4)C3)C[C@]12C
80.6 mg

Would you kindly share the measured Dissolved aminoester for CCCCN(CC)CC(=O)O[C@H]1C[C@]2(C)[C@@H](C(C)=O)CC[C@H]2[C@@H]2CC[C@H]3C[C@H](O)CC[C@]3(C)[C@H]21 ?
100 mg

====

Collected concentration of aqueous solution of the citrate values appear next to each entry.
# Assay info: dissolution of the 11β-aminoester salts in aqueous acid (Table 5 and Examples 101, 225-229)
# Assay type: physicochemical
# Measurement parameters: citric acid monohydrate in water, filtered solution
Counter-ions that a name gives are not always drawn.
Record the value in µg/mL, omitting the unit from your answer.

Illustrative cases are given below, each with its answer.
{"Molecule": "CCO[C@H]1C[C@@]2(C)[C@@H](CC[C@@H]3[C@@H]2[C@@H](OC(=O)CN(CC)CC)C[C@]2(C)[C@@H](C(C)=O)CCC[C@@H]32)C[C@@H]1O [Example 225 citrate salt]", "Measured value": 9750}
{"Molecule": "CC(=O)[C@H]1CC[C@H]2[C@@H]3CC[C@H]4C[C@H](O)CC[C@@H]4[C@H]3[C@@H](OC(=O)CN3CCC(C)CC3)C[C@]12C [Example 229 citrate salt]", "Measured value": 10000}
{"Molecule": "CCCN(CCC)CC(=O)O[C@H]1C[C@]2(C)[C@@H](C(C)=O)CCC[C@H]2[C@@H]2CC[C@H]3C[C@H](O)[C@@H](OCC)C[C@]3(C)[C@H]21 [Example 226 citrate salt]", "Measured value": 9500}

I am curious: what concentration of aqueous solution of the citrate value has been reported for CCCCN(C)CC(=O)O[C@H]1C[C@]2(C)[C@@H](C(C)=O)CC[C@H]2[C@@H]2CC[C@H]3C[C@H](O)CC[C@@H]3[C@H]21 [Example 228 citrate salt] ?
10000

Need concentration of aqueous solution of the citrate, item CCCN(CCC)CC(=O)O[C@H]1C[C@]2(C)[C@@H](C(C)=O)CC[C@H]2[C@@H]2CC[C@H]3C[C@H](O)CC[C@@H]3[C@H]21 [Example 227 citrate salt]
10000

====

Dissolved aminoester reference
# Assay info: dissolution of the 11β-aminoester salts in aqueous acid (Table 5 and Examples 101, 225-229)
# Assay type: physicochemical
# Measurement parameters: method D: 1 molar part acid, undissolved material weighed; WT. of solution 10 g, except Ex. 136: 8.95; 140: 9.52; 165 and 167: 10.1; 190 and 198: 9.8; 191: 8.9; 194: 6.6; 204: 10.09; 219: 10.6 g
The figure you give is taken to be in mg; do not add the unit.

Please review the following examples before continuing.
{"Compound": "CCOC1CC2(C)C(CCC3C4CCC(C(C)=O)C4(C)CC(OC(=O)CNCCC(C)C)C32)CC1O (stereo not drawn)", "Measured value": 76.5}
{"Compound": "CC(=O)[C@H]1CC[C@H]2[C@@H]3CC[C@H]4C[C@H](O)CC[C@]4(C)[C@H]3[C@@H](OC(=O)CNC3CC3)C[C@]12C", "Measured value": 93}
{"Compound": "C=CCN(C)CC(=O)O[C@H]1C[C@]2(C)[C@@H](C(C)=O)CC[C@H]2[C@@H]2CC[C@H]3C[C@H](O)CC[C@]3(C)[C@H]21", "Measured value": 86.1}

Which Dissolved aminoester value belongs to CCCCN(C)CC(=O)O[C@H]1C[C@]2(C)[C@@H](C#N)CC[C@H]2[C@@H]2CC[C@H]3C[C@H](O)CC[C@]3(C)[C@H]21 ?
97

What Dissolved aminoester value was documented for this compound, CCCN(CCC)CC(=O)O[C@H]1C[C@]2(C)[C@@H](C(=O)COC(C)=O)CC[C@H]2[C@@H]2CC[C@H]3C[C@H](O)CC[C@]3(C)[C@H]21 ?
75

Fill in: Dissolved aminoester of CCN(CC)CC(=O)OC1CC2(C)C(C(C)=O)CCC2C2CCC3CC(O)C(OC(C)C)CC3(C)C12 (stereo not drawn) is ___
93

====

# Assay info: dissolution of the 11β-aminoester salts in aqueous acid (Table 5 and Examples 101, 225-229)
# Type: physicochemical
# Measurement parameters: method C: ethanol evaporated, residue in water, undissolved material weighed; WT. of solution Ex. 118: 10; 120: 10.4; 148: 9.54; 152: 5.6; 154: 9.1; 155: 8.77; 156: 9.06; 157: 9.5; 158: 9.38; 159: 9.17; 179: 9.65; 180: 11.7; 182: 4.9; 202: 12.05; 213: 12; 214: 11.5; 215: 11.1; 216: 11.6; 217: 12.1 g
Label Y when Dissolved aminoester < 90 mg; otherwise N.

# check: Dissolved aminoester < 90 mg for CC(=O)[C@H]1CC[C@H]2[C@@H]3CC[C@H]4C[C@H](O)CC[C@]4(C)[C@H]3[C@@H](OC(=O)CN3CCCCC3C)C[C@]12C (stereo partly shown)
N

Given CCCN(CCC)CC(=O)O[C@H]1C[C@]2(C)[C@@H](C(C)=O)CC[C@H]2[C@@H]2CC[C@H]3C[C@H](O)CC[C@]3(C)[C@H]21 [Example 213] , is recorded Dissolved aminoester strictly lower than 90 mg?
N

Given CC(=O)[C@H]1CC[C@H]2[C@@H]3CC[C@H]4C[C@H](O)CC[C@]4(C)[C@H]3[C@@H](OC(=O)C(C)N3CCCCC3)C[C@]12C (stereo partly shown) , is recorded Dissolved aminoester strictly lower than 90 mg?
N

Regarding CCN(CC)CC(=O)O[C@H]1C[C@]2(C)[C@@H](C(C)=O)CC[C@H]2[C@@H]2CC[C@H]3C[C@H](O)[C@@H](Cl)C[C@]3(C)[C@H]21 , kindly confirm whether its Dissolved aminoester is beneath 90 mg.
N

Input CCCN(CCC)CC(=O)O[C@H]1C[C@]2(C)[C@@H](C(C)=O)CC[C@H]2[C@@H]2CC[C@H]3C[C@H](O)CC[C@]3(C)[C@H]21 [Example 214] ; condition: Dissolved aminoester strictly below 90 mg. Does it hold?
N

Take the molecule CCCN(CCC)CC(=O)O[C@H]1C[C@]2(C)[C@@H](C(C)=O)CC[C@H]2[C@@H]2CC[C@H]3C[C@H](O)CC[C@]3(C)[C@H]21 [Example 217] and say whether its Dissolved aminoester is less than 90 mg.
Y

State whether 90 mg exceeds Dissolved aminoester recorded for CCCCN(C)C(C)C(=O)O[C@H]1C[C@]2(C)[C@@H](C(C)=O)CC[C@H]2[C@@H]2CC[C@H]3C[C@H](O)CC[C@]3(C)[C@H]21 (stereo partly shown) .
Y

Just wondering, is Dissolved aminoester of CC(=O)[C@H]1CC[C@H]2[C@@H]3CC[C@H]4C[C@H](O)CC[C@]4(C)[C@H]3[C@@H](OC(=O)CN3CCC(C)CC3)C[C@]12C below 90 mg?
N

Bench note: check whether CCN(CC)CC(=O)O[C@H]1C[C@]2(C)[C@@H](C(C)=O)CC[C@H]2[C@@H]2CC[C@H]3C[C@H](O)CC[C@]3(C)[C@H]21 shows Dissolved aminoester below 90 mg
Y

Please let me know if CC(=O)[C@H]1CC[C@H]2[C@@H]3CC[C@H]4C[C@H](O)CC[C@]4(C)[C@H]3[C@@H](OC(=O)C(C)N3CCC(C)CC3)C[C@]12C (stereo partly shown) shows Dissolved aminoester below 90 mg.
N
